tested on: MDA-MB-468 breast; assay: NCI-60 one-dose screen, 48 h; conditions: 10 µM unless noted
This is part of a sample that, as a whole, favours compounds with a hit. Of some 83,000 tested, about 20% had one in any assay. Activity calls are given as the source filed them. The calls were made as follows: active = growth percent below 10; inactive = the rest.
Would you mind answering with one of these outcomes? label 1 for active, label 0 for inactive

// below: answered compounds
# Compound, Tested Target, Group Label
data = [
    ("COc1cc(OC)c(/C=C/S(=O)(=O)Cc2cnc(OC)c(N)c2)c(OC)c1", "MDA-MB-468 breast", "label 0"),
    ("c1ccc2cc(Cn3cc(CSc4nc5ccccc5s4)nn3)ccc2c1", "MDA-MB-468 breast", "label 0"),
    ("CN[C@@]12CC3(C=CC(=O)C=C3)O[C@]1(Cc1ccc(OC)cc1)N(C)C(=O)N2", "MDA-MB-468 breast", "label 0"),
    ("CC(C)n1cc(C2=C(c3cccc4ccccc34)C(=O)NC2=O)c2cc(Br)ccc21", "MDA-MB-468 breast", "label 0"),
    ("CC(NCCC(c1ccccc1)c1ccccc1)c1ccccc1 (stereo not given)", "MDA-MB-468 breast", "label 0"),
]

Exercise: Identify the outcome logged in this assay for the compound shown: O=C(Cn1nc(-c2cccc3ccccc23)ccc1=O)NCc1cccc(Cl)c1
Solution: label 0

Exercise: Identify the outcome logged in this assay for the compound shown: C/C(=N\NC(N)=S)c1nc2ccc(Cl)cc2[nH]1
Solution: label 0

Exercise: Identify the outcome logged in this assay for the compound shown: COC(=O)/C=C1/SC(=Nc2ccc(C)cc2)N(CCc2c[nH]c3ccc(O)cc23)C1=O
Solution: label 0

Exercise: Identify the outcome logged in this assay for the compound shown: COc1cccc(-c2ccc3c(c2)NC(=O)/C3=C\c2ccc[nH]2)c1
Solution: label 1

Exercise: Identify the outcome logged in this assay for the compound shown: CCNC(=O)c1[nH]cc(-c2ccc(OC)cc2)c1-c1cc(OC)c(OC)c(OC)c1
Solution: label 0

Exercise: Identify the outcome logged in this assay for the compound shown: CCCCC1=C(Br)C(=O)c2nc(C)ccc2C1=O
Solution: label 0

Exercise: Identify the outcome logged in this assay for the compound shown: CCCCN(CCCC)C(=O)[C@H](CC)[C@@H]1CC[C@@H](C)[C@@H]([C@H](C)[C@@H](O)[C@@H](C)C(=O)[C@H](CC)C2O[C@]3(C=CC(=O)[C@]4(CC[C@@](C)([C@H]5CC[C@](O)(CC)[C@H](C)O5)O4)O3)[C@H](C)C[C@@H]2C)O1 (stereo not given in full)
Solution: label 1

----------
tested on: MDA-MB-468 breast; assay: NCI-60 one-dose screen, 48 h; details: 10 µM unless noted
This is part of a sample that, as a whole, favours compounds with a hit. Of some 83,000 tested, about 20% had one in any assay. Active and inactive are the calls of the source. The calls were made as follows: active = growth percent below 10; inactive = the rest.
Would you mind answering with one of these outcomes? t for active, f for inactive

# Molecule, Group Label
measured = [
    ("CN(C)CCCOc1c(Br)cc(/C=C/C(=O)N(C)CCc2cc(Br)c(OCCCN(C)C)c(Br)c2)cc1Br", "f"),
]

Here's the next entry for you.
Exercise: Identify the outcome logged in this assay for the molecule shown: CCN1CCN(c2ccc(Nc3ncc4ccc5ncn(C(C)C)c5c4n3)nc2)CC1
Solution: t

----------
test system: MDA-MB-468 breast; assay: NCI-60 one-dose screen, 48 h (100 = growth as untreated, 0 = no growth, -100 = all killed); details: 10 µM unless noted
The panel holds about 83,000 compounds, 20% with a hit somewhere; the sample as a whole holds those more often.
// reported growth for each item listed
Report as a plain number; the unit % is understood.

# Compound, Tested Target, Unit Name, Numeric Value
data = [
    ("Cc1ccc(NC(=O)c2sc3nc4c(cc3c2N)C(=O)CCC4)cc1", "MDA-MB-468 breast", "%", 32.7),
]

For record COCCNc1ccc2ncc(C#Cc3cncc(C(=O)Nc4ccc(CN5CCN(C)CC5)c(C(F)(F)F)c4)c3)n2n1 the listed growth is -59.9

For record Cc1ccc(-c2onc3c(=O)[nH]nc(-c4ccccc4)c23)cc1 the listed growth is 29.5

For record Cc1ccc2[nH]c3ccccc3c2c1 the listed growth is 100

For record Cc1ccc(S(=O)(=O)n2cc(CNc3ccc(N4CCOCC4=O)cc3)c3ccccc32)cc1 the listed growth is -9.46

For record C/C(=N\NC(=O)Cn1c(-c2ccc(S(C)(=O)=O)cc2)nc2ccccc21)c1ccc(Cl)cc1 the listed growth is 98.3

For record O=C(Nc1ccc(F)cc1)c1cc(-c2ccc(F)cc2F)ccc1O the listed growth is -7.21

For record CC(=O)c1cc(C(=O)c2ccc3c(c2)Sc2ccccc2N3)c2cc(C)ccn12 the listed growth is -3.41

For record O=C(Nc1ccc(OS(=O)(=O)c2ccc(F)cc2)cc1)C1CCCCCC1 the listed growth is 102

For record Clc1ccc(N2N=C(c3cccc(Nc4ccncc4)c3)CC2c2ccc(Br)cc2)cc1 (stereo not given) the listed growth is -27.1

----------
test system: MDA-MB-468 breast; test: NCI-60 one-dose screen, 48 h; conditions: 10 µM unless noted
The panel holds about 83,000 compounds, 20% with a hit somewhere; the sample as a whole holds those more often. The source made the active and inactive calls. The calls were made as follows: active = growth percent below 10; inactive = the rest.
Would you mind answering with one of these outcomes? yes (1) (active), no (0) (inactive)

// below: answered molecules
# Molecule, Group Label
records = [
    ("COc1cc(N2C(=O)[C@H](O)C2c2ccc(SC)cc2)cc(OC)c1OC (some centres undefined)", "yes (1)"),
    ("O=C(c1ccc(Nc2nccc(NCCCNc3ccnc4cc(Cl)ccc34)n2)cc1)N1CCCCC1", "no (0)"),
    ("O=Cc1ccc(O)c2ncccc12", "no (0)"),
    ("COc1ccccc1NC(=O)OCC12COCN1COC2", "no (0)"),
    ("C=C1C(=O)O[C@H]2[C@H]1CC/C(COC(=O)/C=C\\C(=O)O)=C\\CC[C@@]1(C)O[C@@H]21", "no (0)"),
    ("O=C(Nc1ccc(Cl)cc1)Nc1ccc(Nc2nncc3ccccc23)cc1", "yes (1)"),
    ("Cc1ccccc1NC(=O)CN(C)C", "no (0)"),
    ("O=c1[nH]ncc(Br)c1Br", "yes (1)"),
]

Exercise: Identify the outcome logged in this assay for the molecule shown: CC(C)(C)c1ccc(OCCOC(=O)CBr)cc1
Solution: no (0)

Exercise: Identify the outcome logged in this assay for the molecule shown: CCc1nc(N)nc(N)c1C#CC(C)c1ccc(-c2ccncc2)cc1Cl (centres undefined)
Solution: yes (1)

Exercise: Identify the outcome logged in this assay for the molecule shown: CC(C)CSc1nc(NN)c(C#N)c(-c2ccccc2)n1
Solution: no (0)

----------
test system: MDA-MB-468 breast; experiment: NCI-60 one-dose screen, 48 h; settings: 10 µM unless noted
Compounds without any hit were thinned out: in the full panel of roughly 83,000, 20% have a hit. Calls of active or inactive are those of the source. How the source made its calls: active means growth percent below 10; inactive means the rest.
Would you mind answering with one of these outcomes? true (1) = active, false (0) = inactive

// below: answered molecules
# Molecule, Group Label
rows = [
    ("c1ccc2[nH]c(Cc3nc4ccccc4[nH]3)nc2c1", "false (0)"),
    ("COc1cc2c3c(cc4c5c(ccc4c3c1OC)OCO5)N(CCN(C)C)C2=O", "true (1)"),
    ("COc1ccc(-c2ccc(NC(=O)Nc3ccc(Cl)c(C(F)(F)F)c3)c(C)n2)cc1", "false (0)"),
    ("O=C(NCCNC(=O)c1cc(S(=O)(=O)NCCc2ccccc2)c(O)c(O)c1O)c1cc(S(=O)(=O)NCCc2ccccc2)c(O)c(O)c1O", "false (0)"),
    ("COc1cc(NC(N)=NCCC(C)(C)c2ccc(C(F)(F)F)cc2)ncc1C#N", "true (1)"),
    ("CCN(CC)CCn1c2ccc(OC)cc2c2sc3cc(O)ccc3c(=O)c21", "false (0)"),
    ("O=C(Nc1ccncc1)C(=O)c1cn(S(=O)(=O)c2cccc(F)c2)c2ccccc12", "false (0)"),
    ("CN1C(=C2C(=O)OC(C)(C)OC2=O)CCC1C(=O)NCc1ccc(Cl)cc1Cl (centres undefined)", "false (0)"),
]

Exercise: Identify the outcome logged in this assay for the molecule shown: Cc1cc(C(=O)Nc2cc(Oc3ccc4nc(NC(=O)C5CC5)cn4n3)ccc2C)n(C)n1
Solution: false (0)

----------
tested on: MDA-MB-468 breast; experiment: NCI-60 one-dose screen, 48 h; settings: 10 µM unless noted
Compounds without any hit were thinned out: in the full panel of roughly 83,000, 20% have a hit. The source made the active and inactive calls. How the source made its calls: active means growth percent below 10; inactive means the rest.
Would you mind answering with one of these outcomes? active, inactive

// below: answered compounds
# Compound, Tested Target, Group Label
rows = [
    ("CCCOc1cc2ccccc2cc1C(=O)Nc1nc(N)c2c(ccc3nccc32)[nH]1", "MDA-MB-468 breast", "active"),
    ("COc1ccc(Cl)cc1NC(=O)c1cc2c([nH]1)-c1nc(N)sc1CCC2", "MDA-MB-468 breast", "inactive"),
    ("CCOC(=O)/C(=C/c1ccccc1)C(=O)c1ccccc1", "MDA-MB-468 breast", "inactive"),
    ("N#CC1C(c2ccc(Cl)cc2)=Nc2c(c(-c3ccccc3)nn2-c2ccccc2)C12C(=O)Nc1ccc(Cl)cc12 (stereo not given)", "MDA-MB-468 breast", "inactive"),
    ("CCNCc1ccc(O)c2ncccc12", "MDA-MB-468 breast", "inactive"),
]

Exercise: Identify the outcome logged in this assay for the compound shown: Cc1cccc2c3c(sc12)C(c1ccc(Cl)cc1)c1c(nc(CC(=O)Nc2ccccc2)[nH]c1=O)O3 (stereo not given)
Solution: active

Exercise: Identify the outcome logged in this assay for the compound shown: Clc1ccc2c(NC3CCC(NC4CCCCC4)CC3)ccnc2c1 (stereo not given)
Solution: active

Exercise: Identify the outcome logged in this assay for the compound shown: O=C1c2cccnc2C(=O)c2c1c(C(=O)NCCn1ccnc1)c1ccccn21
Solution: active

Exercise: Identify the outcome logged in this assay for the compound shown: COc1cc(C2Cc3ncccc3-c3[nH]c(=O)c4cccnc4c32)cc(OC)c1OC (stereo not given)
Solution: inactive

Exercise: Identify the outcome logged in this assay for the compound shown: CC(=O)O.CC(=O)O.O.[Fe]
Solution: inactive
